meta.source: ChEMBL document CHEMBL3045446

Assign MIC to each entry below.
- Test system: Aspergillus clavatus
- protocol description: Antimicrobial activity against Aspergillus clavatus MTCC 1323 assessed as growth inhibition after 48 hr by agar streak dilution method
- Assay type: functional
- measurement parameters: MTCC 1323, 48 h
Provide the measurement as a number trailed by its unit.

Task: Form field: reported MIC of N#Cc1c(-c2ccc(F)cc2)cc(-c2ccc(Nc3cc(=O)oc4ccccc34)cc2)nc1N
Output: 6.25 µg/mL

Task: Requested read-out: MIC. Entry: COc1ccc(C2CC(c3ccc(Nc4cc(=O)oc5ccccc45)cc3)=NN2C(C)=O)cc1OC (stereo not drawn)
Output: 50 µg/mL

Task: Report MIC for Nc1nc(-c2ccc(F)cc2)cc(-c2ccc(Nc3cc(=O)oc4ccccc34)cc2)n1 please.
Output: 6.25 µg/mL

Task: Request the reported MIC associated with COc1ccc(/C=C/C(=O)c2ccc(Nc3cc(=O)oc4ccccc34)cc2)cc1OC
Output: 100 µg/mL

Task: What does the record list as MIC for O=C(/C=C/c1ccc(F)cc1)c1ccc(Nc2cc(=O)oc3ccccc23)cc1 ?
Output: 100 µg/mL

Task: Look up MIC: Nc1nc(-c2ccc(Nc3cc(=O)oc4ccccc34)cc2)cc(-c2ccc(O)cc2O)n1
Output: 6.25 µg/mL

Task: What MIC value was documented for this molecule, Nc1nc(-c2ccc(Nc3cc(=O)oc4ccccc34)cc2)cc(-c2ccccc2Br)n1 ?
Output: 50 µg/mL

Task: Please report the recorded MIC for O=C(/C=C/c1ccccc1)c1ccc(Nc2cc(=O)oc3ccccc23)cc1 .
Output: 100 µg/mL

* * *

- Tested on: Aspergillus fumigatus
- protocol description: Antimicrobial activity against Aspergillus fumigatus MTCC 343 assessed as diameter of growth inhibition zone after 48 hr; further: test concentration or dose not given here
- Assay type: functional
metric name: diameter of the inhibition zone (DIZ)
Quick note: number first, unit second.

Task: Could you share which diameter of the inhibition zone (DIZ) value was measured for CC(=O)N1N=C(c2ccc(Nc3cc(=O)oc4ccccc34)cc2)CC1c1ccc(Cl)cc1 (centres undefined) ?
Output: 17 mm

Task: Name the recorded diameter of the inhibition zone (DIZ) for Nc1nc(-c2ccc(Nc3cc(=O)oc4ccccc34)cc2)cc(-c2ccccc2O)n1 .
Output: 23 mm

Task: Request the reported diameter of the inhibition zone (DIZ) associated with COc1ccc(-c2cc(-c3ccc(Nc4cc(=O)oc5ccccc45)cc3)nc(N)n2)cc1OC
Output: 25 mm

Task: Can you share its diameter of the inhibition zone (DIZ)? I mean this compound: CC(=O)N1N=C(c2ccc(Nc3cc(=O)oc4ccccc34)cc2)CC1c1ccccc1O (centres undefined)
Output: 18 mm

Task: Give its diameter of the inhibition zone (DIZ) value. Item: N#Cc1c(-c2ccc(Cl)cc2)cc(-c2ccc(Nc3cc(=O)oc4ccccc34)cc2)nc1N
Output: 24 mm

Task: Dear colleague, I am looking for the recorded diameter of the inhibition zone (DIZ) of the following compound: CC(=O)N1N=C(c2ccc(Nc3cc(=O)oc4ccccc34)cc2)CC1c1ccccc1 (centres undefined)
Output: 13 mm

Task: Field request: diameter of the inhibition zone (DIZ) | item: Nc1nc(-c2ccc(Nc3cc(=O)oc4ccccc34)cc2)cc(-c2ccccc2Br)n1
Output: 19 mm

Task: So what does the record say about diameter of the inhibition zone (DIZ) for N#Cc1c(-c2ccc(F)cc2)cc(-c2ccc(Nc3cc(=O)oc4ccccc34)cc2)nc1N ?
Output: 28 mm

Task: Reported diameter of the inhibition zone (DIZ), compound CC(=O)N1N=C(c2ccc(Nc3cc(=O)oc4ccccc34)cc2)CC1c1ccccc1Br (centres undefined) : ____
Output: 17 mm

* * *

- Test system: Aspergillus niger
- protocol description: Antimicrobial activity against Aspergillus niger MTCC 282 assessed as diameter of growth inhibition zone after 48 hr; further: test concentration or dose not given here
- Format: functional
What diameter of the inhibition zone (DIZ) was measured for each of the following?
Give your result in mm as a bare value.

Task: Provide the documented diameter of the inhibition zone (DIZ) with Aspergillus niger as the system for O=C(/C=C/c1ccc(Cl)cc1Cl)c1ccc(Nc2cc(=O)oc3ccccc23)cc1
Output: 15

Task: Enter reported diameter of the inhibition zone (DIZ) observed with Aspergillus niger for N#Cc1c(-c2ccc([N+](=O)[O-])cc2)cc(-c2ccc(Nc3cc(=O)oc4ccccc34)cc2)nc1N
Output: 23

Task: Item: CC(=O)N1N=C(c2ccc(Nc3cc(=O)oc4ccccc34)cc2)CC1c1ccccc1O (stereo not given) Test system: Aspergillus niger Read-out: diameter of the inhibition zone (DIZ) Value: ?
Output: 19

Task: Write down the reported diameter of the inhibition zone (DIZ) of Nc1nc(-c2ccccc2)cc(-c2ccc(Nc3cc(=O)oc4ccccc34)cc2)n1 , test system: Aspergillus niger.
Output: 17

* * *

- Tested on: Candida albicans
- protocol description: Antimicrobial activity against Candida albicans MTCC 183 assessed as diameter of growth inhibition zone after 48 hr; further: test concentration or dose not given here
- Format: functional
Rule: diameter of the inhibition zone (DIZ) of 20 mm or more gives met; anything lower gives not met.

Task: // inclusive: diameter of the inhibition zone (DIZ) at least 20 mm? input: N#Cc1c(-c2ccccc2)cc(-c2ccc(Nc3cc(=O)oc4ccccc34)cc2)nc1N
Output: not met

Task: Check this molecule for diameter of the inhibition zone (DIZ) at or above 20 mm: N#Cc1c(-c2ccccc2O)cc(-c2ccc(Nc3cc(=O)oc4ccccc34)cc2)nc1N
Output: met

Task: Check if diameter of the inhibition zone (DIZ) >= 20 mm (inclusive). Item: CC(=O)N1N=C(c2ccc(Nc3cc(=O)oc4ccccc34)cc2)CC1c1ccc(Cl)cc1 (centres undefined)
Output: not met

Task: Decide: diameter of the inhibition zone (DIZ) of Nc1nc(-c2ccc(Nc3cc(=O)oc4ccccc34)cc2)cc(-c2ccc(Cl)cc2Cl)n1 >= 20 mm?
Output: met

Task: Please check the record O=C(/C=C/c1ccccc1O)c1ccc(Nc2cc(=O)oc3ccccc23)cc1 and state if its diameter of the inhibition zone (DIZ) is at or above 20 mm.
Output: not met

Task: Answer whether diameter of the inhibition zone (DIZ) of Cc1ccc(/C=C/C(=O)c2ccc(Nc3cc(=O)oc4ccccc34)cc2)cc1 is greater than or equal to 20 mm.
Output: not met

Task: Reported diameter of the inhibition zone (DIZ) reaches at least 20 mm for Nc1nc(-c2ccc(Nc3cc(=O)oc4ccccc34)cc2)cc(-c2ccccc2Br)n1 ?
Output: met

Task: Threshold query (diameter of the inhibition zone (DIZ) >= 20 mm) on O=C(/C=C/c1ccc(F)cc1)c1ccc(Nc2cc(=O)oc3ccccc23)cc1
Output: not met

Task: Check the entry O=C(/C=C/c1ccc(O)cc1O)c1ccc(Nc2cc(=O)oc3ccccc23)cc1 : does diameter of the inhibition zone (DIZ) equal or exceed 20 mm?
Output: not met

Task: Check this molecule for diameter of the inhibition zone (DIZ) at or above 20 mm: N#Cc1c(-c2ccc(Cl)cc2Cl)cc(-c2ccc(Nc3cc(=O)oc4ccccc34)cc2)nc1N
Output: met

Task: Identify whether the reported diameter of the inhibition zone (DIZ) of the following molecule is 20 mm or greater: CC(=O)N1N=C(c2ccc(Nc3cc(=O)oc4ccccc34)cc2)CC1c1ccc(Cl)cc1Cl (centres undefined)
Output: not met

Task: Record COc1ccc(C2CC(c3ccc(Nc4cc(=O)oc5ccccc45)cc3)=NN2C(C)=O)cc1OC (centres undefined) ; criterion: diameter of the inhibition zone (DIZ) no lower than 20 mm. Met?
Output: met

Task: For this molecule, is measured diameter of the inhibition zone (DIZ) 20 mm or higher? N#Cc1c(-c2ccc([N+](=O)[O-])cc2)cc(-c2ccc(Nc3cc(=O)oc4ccccc34)cc2)nc1N
Output: met

Task: State whether the measured diameter of the inhibition zone (DIZ) reaches 20 mm, counting equality as reaching it, for O=C(/C=C/c1ccc([N+](=O)[O-])cc1)c1ccc(Nc2cc(=O)oc3ccccc23)cc1
Output: not met

Task: Quick check: does CC(=O)N1N=C(c2ccc(Nc3cc(=O)oc4ccccc34)cc2)CC1c1ccc(F)cc1 (centres undefined) have diameter of the inhibition zone (DIZ) greater than or equal to 20 mm?
Output: not met

Task: Does the reported diameter of the inhibition zone (DIZ) for O=C(/C=C/c1ccc(Cl)cc1Cl)c1ccc(Nc2cc(=O)oc3ccccc23)cc1 fall at or above the 20 mm mark?
Output: not met

Task: Does CC(=O)N1N=C(c2ccc(Nc3cc(=O)oc4ccccc34)cc2)CC1c1ccc(O)cc1O (centres undefined) have a reported diameter of the inhibition zone (DIZ) of at least 20 mm?
Output: not met

Task: Hello, I need to know if CC(=O)N1N=C(c2ccc(Nc3cc(=O)oc4ccccc34)cc2)CC1c1ccc(C)cc1 (centres undefined) has measured diameter of the inhibition zone (DIZ) not below 20 mm. Thanks!
Output: not met

* * *

- System: Proteus vulgaris
- protocol description: Antimicrobial activity against Proteus vulgaris MTCC 1771 assessed as diameter of growth inhibition zone after 24 hr
- Type: functional
Decide using diameter of the inhibition zone (DIZ): a value greater than or equal to 20 mm is Satisfied, a smaller one is Not satisfied.

Task: Tell me whether diameter of the inhibition zone (DIZ) is at least 20 mm here: N#Cc1c(-c2ccc([N+](=O)[O-])cc2)cc(-c2ccc(Nc3cc(=O)oc4ccccc34)cc2)nc1N
Output: Not satisfied

Task: hey, is diameter of the inhibition zone (DIZ) for this one >= 20 mm? Nc1nc(-c2ccc(Nc3cc(=O)oc4ccccc34)cc2)cc(-c2ccccc2O)n1
Output: Not satisfied

Task: Please tell me: is the compound CC(=O)N1N=C(c2ccc(Nc3cc(=O)oc4ccccc34)cc2)CC1c1ccccc1O (centres undefined) at or over 20 mm in terms of diameter of the inhibition zone (DIZ)?
Output: Not satisfied

Task: Does the compound O=C(/C=C/c1ccc(F)cc1)c1ccc(Nc2cc(=O)oc3ccccc23)cc1 have recorded diameter of the inhibition zone (DIZ) that is 20 mm or more?
Output: Not satisfied

Task: Is diameter of the inhibition zone (DIZ) for Cc1ccc(-c2cc(-c3ccc(Nc4cc(=O)oc5ccccc45)cc3)nc(N)n2)cc1 at or above 20 mm?
Output: Satisfied

Task: Textbook exercise: given the entry O=C(O)c1cn(C2CC2)c2cc(N3CCNCC3)c(F)cc2c1=O [CIPROFLOXACIN] , state whether its diameter of the inhibition zone (DIZ) is greater than or equal to 20 mm.
Output: Satisfied

Task: Is reported diameter of the inhibition zone (DIZ) greater than or equal to 20 mm here: Cc1ccc(/C=C/C(=O)c2ccc(Nc3cc(=O)oc4ccccc34)cc2)cc1
Output: Not satisfied

Task: Evaluate COc1ccc(/C=C/C(=O)c2ccc(Nc3cc(=O)oc4ccccc34)cc2)cc1 : diameter of the inhibition zone (DIZ) at minimum 20 mm?
Output: Not satisfied

Task: Kindly determine if diameter of the inhibition zone (DIZ) recorded for Nc1nc(-c2ccc(Nc3cc(=O)oc4ccccc34)cc2)cc(-c2ccc([N+](=O)[O-])cc2)n1 is above or exactly 20 mm.
Output: Not satisfied
